# Tested System: PAR2 (HT-29 cells, SLIGKV activation) (Homo sapiens, UniProt P55085)
# Construct: host or cells: HT-29 cells
# Sequence (P55085 26-397): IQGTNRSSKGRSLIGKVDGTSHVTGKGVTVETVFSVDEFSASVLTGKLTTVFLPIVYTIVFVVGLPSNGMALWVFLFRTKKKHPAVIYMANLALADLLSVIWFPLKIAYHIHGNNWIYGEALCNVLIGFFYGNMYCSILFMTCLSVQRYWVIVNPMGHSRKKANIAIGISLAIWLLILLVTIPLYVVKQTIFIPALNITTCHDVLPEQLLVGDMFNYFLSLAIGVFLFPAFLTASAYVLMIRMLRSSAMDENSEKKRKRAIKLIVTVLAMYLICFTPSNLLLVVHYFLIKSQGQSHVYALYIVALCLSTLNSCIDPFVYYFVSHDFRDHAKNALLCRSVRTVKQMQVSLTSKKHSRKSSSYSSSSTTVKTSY
# Protocol Text: Ca FLIPR TETRA assay, ANTAGONIST mode, stimulation with 8 μM SLIGKV
# Format: cell-based
# Measurement Conditions: HT-29 cells, antagonist mode, stimulation with 8 μM SLIGKV
# Description: Example 60: Protocol for Testing PAR2 Compounds in ANTAGONIST Mode Using the Ca FLIPR^TETRA Assay (384 Well) […] A first read was performed to determine whether the test compounds on their own can activate Ca2+ responses. The cells were incubated with the compounds for 30 min at r. t. and then read in ANTAGONIST mode in the same plate by stimulating with 6.2 uL of a fixed concentration of the activator: final concentrations: 8 μM SLIGKV, 1 U/mL Thrombin, 3.1 U/mL trypsin, or 0.6 μM UTP.
Measured Endpoint: log10 of IC50 (log10 of the value in nM)
Use the decimal logarithm of IC50 (nM).

Sample answers from the record:
Given the compound Cc1ncc(C(=O)N2CCN(C(=O)c3cn4nc(-c5ccc(F)cc5)cc(C(C)(C)C)c4n3)C(C)(C)C2)[nH]1 [Compound I-312] , write its reported log10 of IC50.
0.11

Given the compound Cc1cccc(-c2cc(C(C)(C)C)c3nc(C(=O)N4CCN(C(=O)c5ccccn5)CC4(C)C)cn3n2)c1 [Compound I-411] , write its reported log10 of IC50.
0.68

Given the compound Cc1nc(C(=O)N2CCN(C(=O)c3cn4nc(-c5ccc(F)cc5)cc(C(C)(C)C)c4n3)C(C)(C)C2)nn1COP(=O)(O)O [Compound I-485] , write its reported log10 of IC50.
1.99

Given the compound Cc1cc(-c2cc(C(C)C)c3nc(C(=O)N4CCN(C(=O)[C@H]5C[C@](O)(C(F)(F)F)C5)CC4(C)C)cn3n2)ccc1F [Compound I-260] , write its reported log10 of IC50.
-0.15

Given the compound CC(F)(F)c1cc(-c2ccc(F)cc2)nn2cc(C(=O)N3CCNC(=O)C3(C)C)nc12 [Compound I-325] , write its reported log10 of IC50.
1.74

Further cases:
Given the compound Cc1c[nH]c(C(=O)N2CCN(C(=O)c3cn4nc(-c5ccc(F)cc5)cc(C(C)(C)C)c4n3)C(C)(C)C2)n1 [Compound I-340] , write its reported log10 of IC50.
0.18

Given the compound Cc1ncc(C(=O)N2CCN(C(=O)c3cn4nc(-c5ccc(Cl)cc5)cc(C(C)(C)C)c4n3)C(C)(C)C2)[nH]1 [Compound I-441] , write its reported log10 of IC50.
-0.30

Given the compound Cc1nnc(C(=O)N2CCN(C(=O)c3cn4nc(-c5ccc(C(F)(F)F)cc5)cc(C(C)(C)C)c4n3)C(C)(C)C2)o1 [Compound I-400] , write its reported log10 of IC50.
0.56

Given the compound Cc1ccc(-c2cc(C(C)(C)C)c3nc(C(=O)N4CCN(C(=O)c5cnc(C)[nH]5)CC4(C)C)cn3n2)cc1 [Compound I-422] , write its reported log10 of IC50.
0.28

Given the compound Cc1nnc(C(=O)N2CCN(C(=O)c3cn4nc(-c5ccc(Cl)cc5)cc(C(C)(C)C)c4n3)C(C)(C)C2)o1 [Compound I-443] , write its reported log10 of IC50.
-0.10

Given the compound C[C@@H]1C[C@H](c2cc(-c3ccc(F)cc3)nn3cc(C(=O)N4CCN(C(=O)OC(C)(C)C)CC4(C)C)nc23)C[C@H](C)O1 [Compound I-209] , write its reported log10 of IC50.
1.22

Given the compound Cc1nnc(C(=O)N2CCN(C(=O)c3cn4nc(-c5ccc(F)cc5)cc(C(C)(C)C)c4n3)C(C)(C)C2)o1 [Compound I-288] , write its reported log10 of IC50.
0.08

Given the compound CC(C)(C)c1cc(-c2ccc(Br)cc2)nn2cc(C(=O)N3CCNC(=O)C3(C)C)nc12 [Compound I-517] , write its reported log10 of IC50.
0.43

Given the compound Cc1nnc(C(=O)N2CCN(C(=O)c3cn4nc(-c5ccc(C)c(F)c5)cc(C(C)C)c4n3)C(C)(C)C2)o1 [Compound I-337] , write its reported log10 of IC50.
0.73

Given the compound COC(=O)[C@H]1CC[C@@H](C(=O)N2CCN(C(=O)c3cn4nc(-c5ccc(Br)cc5)cc(C(C)(C)C)c4n3)C(C)(C)C2)CC1 [Compound I-520] , write its reported log10 of IC50.
0.00

Reference source: patent US20190119282A1
